Test system: SF-539 CNS
Test: NCI-60 one-dose screen, 48 h (100 = growth as untreated, 0 = no growth, -100 = all killed)
Settings: 10 µM
Method: Cells are grown in 96 well plates and exposed to the test compound for 48 hours. Compounds are tested at a single concentration, which is 10^-5 M for most compounds. The reported endpoint is percent growth (GI% or GIPRCNT), where numbers from 0 - 100% represent growth inhibition, and numbers from -100% - 0 represent cell death. For example, a value of 40 represents 60% growth inhibition. A value of 0 means no net growth occurred over the course of the experiment. […]
About 83,000 compounds went through this panel and 20% of them were active in at least one assay; those are over-represented in the sample as a whole.
measured.quantity: growth (%)
Could you give me the number in %? Just the number is fine.

COc1cnc2c(c1)C(=O)c1c-2n(CCCNCCO)c(=O)c2cc(OC)c(OC)cc12; -52.7
COc1ccc2[nH]c(=O)c(CSc3cccc(N)c3)cc2c1; 71.3

Ask: Entry under review: Cc1ccc(S(=O)(=O)c2nc(-c3ccccc3)oc2S(=O)(=O)CC(=O)N2CCCC2)cc1 . Reported growth?
Result: -100

Ask: Entry under review: COc1ccc(N(C)c2cc(C#N)nc3ccccc23)cc1/C=C/C(=O)NO . Reported growth?
Result: -89.6

Ask: Entry under review: Cc1cc(C)nc(/N=C(\N)Nc2ccc(S(=O)(=O)Nc3nc(C)cc(C)n3)cc2)n1 . Reported growth?
Result: 102

====

System: SW-620 colon
Test: NCI-60 one-dose screen, 48 h
Conditions: 10 µM
Procedure: Growth inhibition of the SW-620 human tumor cell line is measured as a screen for anti-cancer activity. Cells are grown in 96 well plates and exposed to the test compound for 48 hours. Compounds are tested at a single concentration, which is 10^-5 M for most compounds. The reported endpoint is percent growth (GI% or GIPRCNT), where numbers from 0 - 100% represent growth inhibition, and numbers from -100% - 0 represent cell death. For example, a value of 40 represents 60% growth inhibition. […]
About 83,000 compounds went through this panel and 20% of them were active in at least one assay; those are over-represented in the sample as a whole. Calls of active or inactive are those of the source. Rule for the calls: active = growth percent below 10; inactive = the rest.
Parameter call: string, one of active, inactive

CC1(C)CC[C@]2(C(=O)N3CCOCC3)CC[C@]3(C)C(=CC[C@@H]4[C@@]5(C)CC[C@H](NCO)C(C)(C)[C@@H]5CC[C@]43C)[C@H]2C1; active
Cc1ccc(-c2ccc(SCC(=O)Nc3ccc(Cl)c(C(F)(F)F)c3)nn2)cc1; inactive
Cc1ccc(C(C)C)cc1NC(=O)c1ccccc1N(C)C; inactive

Ask: Look up the recorded call for Cc1ccc(-c2nc3ccc(C(=O)N=Nc4c(O)[nH]c5ccc(Br)cc45)cc3[nH]2)cc1 in this test.
Result: active

Ask: Look up the recorded call for Cc1cc(C)nc(/N=C(\N)Nc2ccc(S(=O)(=O)Nc3nc(C)cc(C)n3)cc2)n1 in this test.
Result: inactive

====

System: SK-MEL-28 melanoma
Assay: NCI-60 one-dose screen, 48 h (100 = growth as untreated, 0 = no growth, -100 = all killed)
Settings: 10 µM
Compounds without any hit were thinned out: in the full panel of roughly 83,000, 20% have a hit.
So basically: is growth under 30%? Then condition met. Not under? Then condition not met.

Would you please look over these solved cases?
O=C(c1ccc(Cl)cc1)C1[C@H](c2ccccc2Br)[C@@H](c2ccccc2)NC12C(=O)Nc1ccccc12 (some centres not stated); condition not met
COc1ccc(-c2nc(S(=O)(=O)c3ccccc3)c(S(C)(=O)=O)o2)cc1; condition met
O=c1[nH]c2ccccc2cc1CSc1ccc(Nc2nccc(-c3ccc4ccccc4c3)n2)cc1; condition not met
O=C(c1ccc(Cl)cc1)C1[C@H](c2ccccc2Br)[C@@H](c2ccccc2)NC12C(=O)Nc1ccc(Br)cc12 (some centres not stated); condition not met
CN(C)c1nc(NCCNS(=O)(=O)c2ccc(C(=O)/C=C/c3ccccc3)cc2)nc(Nc2ccc(F)cc2)n1; condition not met
O=C1NC(=NC23CC4CC(CC(C4)C2)C3)N/C1=C\c1ccc2ncoc2c1; condition met

Ask: Problem: For the molecule Cc1cc2c(c(O)c1Br)-c1ncoc1C(=O)[C@]1(C)CC[C@H](C(C)C)[C@H]21 , is growth under 30%?
Result: condition not met

Ask: Problem: For the molecule CC1=C2C(=C[C@@](C)(COCOCCCl)[C@@H]2O)C(=O)[C@](C)(O)C12CC2 , is growth under 30%?
Result: condition met

Ask: Problem: For the molecule O=C(CNc1nc(-c2ccccc2)cs1)Nc1ccc([N+](=O)[O-])cc1Cl , is growth under 30%?
Result: condition not met

Ask: Problem: For the molecule CCCCCCCCCCCCCCCCCCCC(=O)NCCc1c[nH]c2ccc(O)cc12 , is growth under 30%?
Result: condition not met

Ask: Problem: For the molecule CC(=O)c1ccc(Nc2nc(SC(C)C)nc(-c3ccccc3)c2C#N)cc1 , is growth under 30%?
Result: condition not met

Ask: Problem: For the molecule Cc1ccc(CSc2nc(Cl)c(C#N)c(-c3ccc(F)cc3)n2)cc1 , is growth under 30%?
Result: condition not met
